- tested-target: T1, mature recombinant human GDF-15 H202D variant with an N-terminal Flag and His tag, biotinylated (human, UniProt Q99988 197-308, chemically biotinylated with EZ link Sulfo-NHS-LC-Biotin, sites not stated)
- T1 construct: also called Human H202D; not shown: N-terminal Flag and His tags
- T1 chain: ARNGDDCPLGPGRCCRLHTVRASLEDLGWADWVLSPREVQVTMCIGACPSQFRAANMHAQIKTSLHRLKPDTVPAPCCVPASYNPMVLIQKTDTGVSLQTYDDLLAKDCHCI
- protocol-details: SPR Biacore 8K, 25 C, biotinylated GDF-15 on streptavidin C1 chip, Fab as analyte
property-label: koff (s⁻¹)
Just the number in s⁻¹, nothing appended.

Examples from the recorded data:
- binder: "AB1170247 Fab (Fab, V domains shown, Fab of the humanized antibody, expressed as in Spooner et al. 2015) VH: QVQLVQSGSELKKPGASVKVSCKASGYTFTSYDINWVRQAPGQGLEWIGWIYPRDGISKYNEKFKGRATLTVDTSASTAYMELSSLRSEDTAVYYCAGTYDPAYFDYWGQGTTVTVSS VL: EIVLTQSPATLSVSPGERATLSCRASQSISYYLHWYQQKPGQAPRLLIKYASQSISGVPDRFSGSGSGTDFTLKISRVEAEDFGVYYCQQSNSWPYTFGGGTKVEIK"
  property-label: "koff"
  result-value: 0.0385
- binder: "AB1170249 Fab (Fab, V domains shown, Fab of the humanized antibody, expressed as in Spooner et al. 2015) VH: QVQLQESGPGLLKPSQTLSLTCTVSGFSLSTYGMGVGWIRQPLGKGLEWLANIWWNDDKYYNSALKSRLTISKDTSKNQVSLKLSSVTAADTAVYYCAQMAYSWFAYWGQGTLVTVSS VL: DIQMTQSPSFLSASVGDRVTITCKASQNMDTNVAWYQQKPGQPPKALIYSASYRYSGVPDRFSGSGSGTDFTLTISSLQAEDVAVYYCQQYNSYPFTFGQGTKLEIK"
  property-label: "koff"
  result-value: 0.0113
- binder: "AB1170243 Fab (Fab, V domains shown, Fab of the humanized antibody, expressed as in Spooner et al. 2015) VH: QVQLVQSGSELKKPGASVKVSCKASGYTFTDYNMDWIRQSPGKGLEWIGDINPNNGGTFYNQKFKDRATLTVDKSTSTAYMELRSLRSDDTAVYYCAREEKLYFGLMDYWGQGTTVTVSS VL: DIQMTQSPSSLSASVGDRVTITCRASENIYSYLAWYQQKPGKAPKLLVYNAKTLAEGVPSRFSGSGSGIDFTLTISSLQPEDFATYYCQHQYGSPPTFGQGTKLEIK"
  property-label: "koff"
  result-value: 0.000425
- binder: "AB1520085 Fab (Fab, V domains shown, Fab of the anti-mouse GDF-15 mouse IgG1, expressed as in Spooner et al. 2015) VH: QVQLQQPGAELVMPGASVKMSCKASGYTFTDYWMHWVKQRPGQGLEWIGVIDTSESYTSYNQKFKGKATLTVDESSSTAYMQLSSLTSEDSAVYFCARGGTTVVLDYWGQGTTLTVSS VL: DIVMTQSQKFMSTSVGDRVSVTCKASQNVGTAVAWYQKKPGQSPKALIYSASTRYTGVPDRFTGSGSGTDFTLTISNVQSEDLAEYFCQQYSSSPWTFGGGTKLELK"
  property-label: "koff"
  result-value: 0.00478

Okay, next one:
Fill in the blank: the reported koff of AB1170241 Fab (Fab, V domains shown, Fab of the humanized antibody, expressed as in Spooner et al. 2015) VH: QVQLVQSGSELKKPGASVKVSCKASGYTFTDYNMDWIRQSPGKGLEWIGDINPNQGGTFYNQKFKDRATLTVDKSTSTAYMELRSLRSDDTAVYYCAREEKLYFGLMDYWGQGTTVTVSS VL: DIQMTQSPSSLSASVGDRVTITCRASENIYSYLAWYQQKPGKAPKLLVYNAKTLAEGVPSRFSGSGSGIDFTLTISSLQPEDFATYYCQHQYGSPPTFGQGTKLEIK is ____.
0.000696
